Reference source: PubChem BioAssay (NCI)

Catalogue of compounds with associated growth
Test system: MALME-3M melanoma
assayExplanation: NCI-60 one-dose screen, 48 h (100 = growth as untreated, 0 = no growth, -100 = all killed)
protocolConditions: 10 µM unless noted
This is part of a sample that, as a whole, favours compounds with a hit. Of some 83,000 tested, about 20% had one in any assay.
Respond with the bare value in %.

compound	unitInfo	testValue
CC1=C/C(=N\N=C2/C=C(C)CC(C)(C)C2)CC(C)(C)C1	%	96.4
Cc1cnc(SCc2ccc(Cl)cc2)[nH]c1=S	%	95.8
CC(=O)OC[C@]12CC[C@@H](c3cn(Cc4ccc(Cn5cc([C@@H]6CC[C@]7(COC(C)=O)CC[C@]8(C)[C@H](CC[C@@H]9[C@@]%10(C)CC[C@H](OC(C)=O)C(C)(C)[C@@H]%10CC[C@]98C)[C@@H]67)nn5)cc4)nn3)[C@@H]1[C@H]1CC[C@@H]3[C@@]4(C)CC[C@H](OC(C)=O)C(C)(C)[C@@H]4CC[C@@]3(C)[C@]1(C)CC2	%	98.8

growth in this record for O=C(Nc1cccc(-c2cccc(F)c2)c1)C1CCN(Cc2cccc3cccnc23)CC1 : -50

growth in this record for c1ccc(-c2n(Cc3ccc4ccccc4n3)cc[n+]2Cc2ccc3ccccc3n2)cc1 : 19.8

---

System: SK-MEL-2 melanoma
assayExplanation: NCI-60 one-dose screen, 48 h
protocolConditions: 10 µM unless noted
Compounds without any hit were thinned out: in the full panel of roughly 83,000, 20% have a hit. The source made the active and inactive calls. Rule for the calls: active = growth percent below 10; inactive = the rest.
Permitted responses: yes (1) for active, no (0) for inactive

>>> print(df.to_string())
                                   molecule  qualitativelabel
0  O=S(=O)(Nc1nccs1)c1ccc(Nc2nc(-c3ccncc3)cs2)cc1            no (0)

Here is the next item to consider.
Lab log entry: CCSc1nc(Cl)c(C#N)c(-c2ccc(F)cc2)n1 — outcome as called in the assay?
no (0)

---

Catalogue of molecules with associated growth
Tested on: NCI-H522 lung
assayExplanation: NCI-60 one-dose screen, 48 h (100 = growth as untreated, 0 = no growth, -100 = all killed)
protocolConditions: 10 µM unless noted
The panel holds about 83,000 compounds, 20% with a hit somewhere; the sample as a whole holds those more often.
Respond with the bare value in %.

growth in this record for NC(N)=NC(N)=Nc1cc2ccccc2c2ccccc12 : 7.5

growth in this record for CN1C(=O)c2cc(Cl)nc3c(NC(=O)c4cccc(Cl)c4)c(Cl)c(NC(=O)c4cccc(Cl)c4)c1c23 : -54.6

growth in this record for COc1ccc(-n2cc(-c3ccc(Cl)c(Cl)c3)[nH]c2=O)cc1OC : 85.2

growth in this record for Cc1ccn2c3c(c(C(=O)O)c2c1)C(=O)c1ccccc1C3=O : 82.5

growth in this record for COc1cccc(NC(=O)Nc2ccc(Oc3ncnc4[nH]c(C)c(C)c34)cc2)c1 : 57.8

---

Catalogue of molecules with associated growth
Test system: U251 CNS
assayExplanation: NCI-60 one-dose screen, 48 h (100 = growth as untreated, 0 = no growth, -100 = all killed)
protocolConditions: 10 µM unless noted
This is part of a sample that, as a whole, favours compounds with a hit. Of some 83,000 tested, about 20% had one in any assay.
Respond with the bare value in %.

Consider the reported growth for these molecules:
molecule	unitInfo	growth
CSc1nc(-c2cccs2)c2c(N)[nH]nc2n1	%	98.9
O=C(Nc1cccc(-c2cccc(F)c2)c1)C1CCN(Cc2cccc3cccnc23)CC1	%	44.4
C#Cc1ccccc1NC(=O)c1sc2nc3c(cc2c1N)CCCCCC3	%	23.4
COc1cc2c(cc1OC)C(Sc1ccc(Cl)cc1)c1c(nc(N)c(C#N)c1N)O2 (centres undefined)	%	-62.5
N#Cc1c(-c2ccc(F)cc2)nc(N/N=C/c2c[nH]c3ccccc23)nc1N1CCOCC1	%	32.2

growth in this record for C#C[C@@]1(O)[C@@H](CO)O[C@@H](n2cc(I)c3c(N)ncnc32)[C@@H]1O : -0.637

growth in this record for CCCCOc1nc2ccc(C)cc2cc1/C=C/C(=O)/C=C/c1ccc2c(c1)OCO2 : 48.4

growth in this record for COc1ccccc1C(=O)/C=C/c1cc2cccc(OC)c2[nH]c1=O : -55.7

---

System: HCT-116 colon
assayExplanation: NCI-60 one-dose screen, 48 h (100 = growth as untreated, 0 = no growth, -100 = all killed)
protocolConditions: 10 µM unless noted
This is part of a sample that, as a whole, favours compounds with a hit. Of some 83,000 tested, about 20% had one in any assay.
observable: growth (%)
Respond with the bare value in %.

molecule	observable	testValue
CC[C@H](Nc1ncnc2nc[nH]c12)c1nc2cccc(CC(=O)c3ccc(C(=O)NO)cc3)c2c(=O)n1-c1ccccc1	growth	90.5
C=C1C(=O)O[C@H]2[C@H]1CC/C(COC(=O)N1CCC[C@H]1C(=O)Nc1ccc(OC)c(C(N)=O)c1O)=C\CC[C@@]1(C)O[C@@H]21	growth	14.8
Nn1c(SCC(=O)Nc2ccc(Cl)cc2)nnc1-c1cc(F)c(Cl)cc1Cl	growth	83.1
COc1ccc(-c2cc(C(=O)N3N=C(c4ccc(N)cc4)CC3c3ccc(OC)cc3)c3cc(OC)ccc3n2)cc1 (centres undefined)	growth	7.78
CC[C@]12C=CCN3CC[C@@]4(c5cc(NC(=O)CCC(=O)O[C@H]6CC[C@H]7[C@@H]8CC[C@H]9CC(=O)CC[C@]9(C)[C@H]8CC[C@]67C)c(OC)cc5N(C)[C@H]4[C@@](O)(C(=O)OC)[C@@H]1OC(C)=O)[C@@H]32	growth	47.5

growth in this record for COC(=O)c1ccc(NC(=O)CSc2nc(-c3ccc(F)cc3)nc3ccccc23)cc1 : 49.8

growth in this record for CCOC(=O)c1ccc(Nc2ncnc3ccc(NC(=O)c4ccccc4)cc23)cc1 : 91.4

growth in this record for O=C1CCC23OC(c4ccccc4N12)C(O)C(O)C3O (centres undefined) : 84.9

growth in this record for C/C(=N\NC(=O)c1ccncc1)c1ccc(N)cc1 : 99.6

growth in this record for O=c1[nH]c2ccccc2cc1-c1nc2ccncc2[nH]1 : 63.2

growth in this record for CN1CCN(C(=O)[C@@]2(C)CC[C@]3(C)CC[C@]4(C)C(=CC[C@@H]5[C@@]6(C)CC[C@H](OC(=O)c7cccnc7)C(C)(C)[C@@H]6CC[C@]54C)[C@@H]3C2)CC1 : 51.7

---

Tested on: A498 renal
assayExplanation: NCI-60 one-dose screen, 48 h (100 = growth as untreated, 0 = no growth, -100 = all killed)
protocolConditions: 10 µM unless noted
This is part of a sample that, as a whole, favours compounds with a hit. Of some 83,000 tested, about 20% had one in any assay.
observable: growth (%)
Respond with the bare value in %.

Consider the reported growth for these compounds:
>>> df
                                   compound  testvalue
0  CCCCCCC/C=C/[C@H]1O[C@]23C(=O)C[C@@]4(C[C@@H](OC5OC(CO)C(O)C(O)C5O)C[C@@H]4[C@H]2C=C1C)OC3=O (stereo not given in full)       70.1
1  CCOc1ccc(C2N(c3cc(OC)c(OC)c(OC)c3)C(=O)C2(F)F)cc1 (stereo not given)       92.3
2            COc1ccc2[nH]c3nc4cnccc4cc3c2c1        114
3  CN1CC=C(c2cc(NC(=O)Nc3ccc(Oc4ccnc(NC(=O)C5CC5)c4)c(F)c3)cc(C(F)(F)F)c2)CC1      -27.9

Shifting focus to the compound that follows.
growth in this record for CC1CCCN(CCCCCOc2ccc3oc4ccc(Cl)cc4c(=O)c3c2)C1 (stereo not given) : 76.3

---

System: ACHN renal
assayExplanation: NCI-60 one-dose screen, 48 h
protocolConditions: 10 µM unless noted
This is part of a sample that, as a whole, favours compounds with a hit. Of some 83,000 tested, about 20% had one in any assay. Calls of active or inactive are those of the source. How the source made its calls: active means growth percent below 10; inactive means the rest.
Permitted responses: active, inactive

A selection of reference data follows.
compound	targetDesc	qualitativeLabel
CCOC(=O)NC(Cc1ccccc1)c1ccccc1 (centres undefined)	ACHN renal	inactive
C=C(C)[C@@H]1CC[C@]2(C(=O)O)CC[C@]3(C)[C@H](CC[C@@H]4[C@@]5(C)C[C@@H](CC#Cc6ccccc6)C(=O)C(C)(C)[C@@H]5CC[C@]43C)[C@@H]12	ACHN renal	inactive
CC(=O)OCC1SC(OC(C)=O)C(NC(=O)/C=C/CCl)C(OC(C)=O)C1OC(C)=O (centres undefined)	ACHN renal	inactive

Lab log entry: Nc1ccc(C2=NN(C(=O)c3cc(-c4ccc(Cl)cc4)nc4ccccc34)C(c3ccc(Cl)cc3)C2)cc1 (centres undefined) — outcome as called in the assay?
inactive

Lab log entry: O=C(Nc1ccccc1)NS(=O)(=O)c1c[nH]c(=S)[nH]c1=O — outcome as called in the assay?
inactive

Lab log entry: CCOC(=O)c1c(-c2ccc(O)cc2)c(C#N)c2c(C#N)c(N)nn2c1N — outcome as called in the assay?
inactive

Lab log entry: COc1ccc(C(=S)c2cc(OC)c(OC)c(OC)c2)cc1OC(=O)CCl — outcome as called in the assay?
inactive

Lab log entry: OCCNc1nc(NCCO)nc(Nc2ccc(C3=NN(c4cc(Cl)cc(Cl)c4)C(c4ccc(Cl)cc4)C3)cc2)n1 (centres undefined) — outcome as called in the assay?
inactive

Lab log entry: COc1ccc(-c2cc(C(=O)N3N=C(c4ccc(N)cc4)CC3c3ccc(OC)cc3)c3cc(OC)ccc3n2)cc1 (centres undefined) — outcome as called in the assay?
inactive

Lab log entry: C=CCn1c(SCC(=O)Nc2ccc(C(=O)/C=C/c3cc(OC)c(OC)c(OC)c3)cc2)nnc1-c1ccccc1 — outcome as called in the assay?
inactive

Lab log entry: O=C(O)COc1ccc2c(=O)c3sc4c(=O)c5ccccc5c(=O)c4c3c(=O)c2c1 — outcome as called in the assay?
inactive

Lab log entry: O=C1Nc2ccc(Cl)cc2/C1=N/c1nc(-c2ccc(Cl)cc2)cs1 — outcome as called in the assay?
inactive

Lab log entry: N#Cc1c(-c2ccc(F)cc2)nc(N=Nc2c(O)[nH]c3ccc(Cl)cc23)nc1N1CCOCC1 — outcome as called in the assay?
inactive

Lab log entry: COc1ccc(C2C(c3ccccc3)C(=O)N2c2cc(OC)c(OC)c(OC)c2)cc1I (centres undefined) — outcome as called in the assay?
inactive

Lab log entry: N#C/C(=C/c1ccc(O)c([N+](=O)[O-])c1)c1nc(-c2ccc([N+](=O)[O-])cc2)cs1 — outcome as called in the assay?
inactive

Lab log entry: Nc1c(C(=O)c2ccccc2)sc2nc(-c3cc4ccccc4o3)cc(-c3ccc(Cl)cc3)c12 — outcome as called in the assay?
inactive

Lab log entry: COc1cc2nc3c(=O)n(CCN(C)C)cnn3c(=O)c2cc1OC — outcome as called in the assay?
inactive
